Cited source for all entries: ChEMBL document CHEMBL4665917

Assay Comment: Clearance in Beagle dog at 0.5 mg/kg, iv or 1 mg/kg, po
Assay type: ADME, organism-based, Canis lupus familiaris
Study Conditions: in vivo
Observation Type: clearance (mL/min/kg)

[I] CCn1c(-c2cnc(C)nc2)nc2c(-c3ccc4c(c3)[C@](C)(N[C@H]3CCOC3)C(=O)N4)ncnc21
[II] Cc1ncc(-c2nc3c(-c4ccc5c(c4)[C@@]4(CCCN4C(=O)C4CC4)C(=O)N5)ncnc3n2C)cn1
Field: lower clearance | Options: I / II Respond using the label that marks the chosen record. II

[a] CCn1c(-c2cnc(C)nc2)nc2c(-c3ccc4c(c3)[C@](C)(NCC(C)(C)F)C(=O)N4)ncnc21
[b] CCn1c(-c2cnc(C)nc2)nc2c(-c3cnc4c(c3)[C@](C)(NCC(C)(C)F)C(=O)N4)ncnc21
Between these two entries, a and b , state which has the higher clearance. Respond using the label that marks the chosen record. a

----------
Assay Comment: Unbound volume of distribution in Wistar-Han rat at 0.5 mg/kg, iv or 1 mg/kg, po
Assay type: ADME, organism-based
Study Conditions: in vivo
Observation Type: Vdu (L/kg)

Some entries whose results are on file:
CCn1c(-c2cnc(C)nc2)nc2c(-c3ccc4c(c3)[C@](C)(NC3CCC3)C(=O)N4)ncnc21 : 7.3
CCn1c(-c2cnc(C)nc2)nc2c(-c3ccc4c(c3)[C@](C)(N3CC(C)(OC)C3)C(=O)N4)ncnc21 : 6.3
CCn1c(-c2cnc(C)nc2)nc2c(-c3ccc4c(c3)[C@](C)(NCC(C)(F)F)C(=O)N4)ncnc21 : 6.9
CCn1c(-c2cnc(C)nc2)nc2c(-c3cnc4c(c3)[C@](C)(NCC(C)(C)F)C(=O)N4)ncnc21 : 5
CCn1c(-c2cnc(C)nc2)nc2c(-c3cnc4c(c3)[C@](C)(N3CC(C)(OC)C3)C(=O)N4)ncnc21 : 3.3

[a] CCn1c(-c2cnc(C)nc2)nc2c(-c3cnc4c(c3)[C@](C)(NC3CCC3)C(=O)N4)ncnc21
[b] CCn1c(-c2cnc(C)nc2)nc2c(-c3ccc4c(c3)[C@@]3(CCCN3C(C)C)C(=O)N4)ncnc21
Field: lower Vdu | Options: a / b Respond using the label that marks the chosen record. a
(a: 3.1 L/kg, b: 14 L/kg)

----------
Assay Comment: AUC in rat at 200 mg/kg
Format: ADME, organism-based
Design: dose 200 mg/kg
Study Conditions: in vivo
Observation Type: AUC (µM·h)
// units = µM·h; emit number, no label

For the compound Cc1ncc(-c2nc3c(-c4ccc5c(c4)[C@@]4(CCCN4C(=O)C4CC4)C(=O)N5C)ncnc3n2C)cn1 , give its reported AUC. 490

----------
Assay Comment: Clearance in Wistar-Han rat at 0.5 mg/kg, iv or 1 mg/kg, po
Format: ADME, organism-based
Study Conditions: in vivo
Observation Type: clearance (mL/min/kg)

Some entries whose results are on file:
CCn1c(-c2cnc(C)nc2)nc2c(-c3ccc4c(c3)[C@](C)(N[C@H]3CCOC3)C(=O)N4)ncnc21 : 44
CCn1c(-c2cnc(C)nc2)nc2c(-c3ccc4c(c3)[C@](C)(NCC(C)(C)F)C(=O)N4)ncnc21 : 28

[I] Cc1ncc(-c2nc3c(-c4ccc5c(c4)[C@@]4(CCCN4C(=O)C4CC4)C(=O)N5C)ncnc3n2C)cn1
[II] Cc1ncc(-c2nc3c(-c4ccc5c(c4)[C@@]4(CCCN4C(=O)C4CC4)C(=O)N5)ncnc3n2C)cn1
Field: lower clearance | Options: I / II Respond using the label that marks the chosen record. I

----------
Assay Comment: Oral bioavailability in Wistar-Han rat at 1 mg/kg
Type: ADME, organism-based
Study Conditions: in vivo
Observation Type: bioavailability (%)

[a] CCn1c(-c2cnc(C)nc2)nc2c(-c3ccc4c(c3)[C@@]3(CCCN3C(=O)C3CC3)C(=O)N4C)ncnc21
[b] CCn1c(-c2cnc(C)nc2)nc2c(-c3ccc4c(c3)[C@@]3(CCCN3C(=O)C3CC3)C(=O)N4)ncnc21
[c] CCn1c(-c2cnc(C)nc2)nc2c(-c3ccc4c(c3)[C@](C)(N3CC(C)(OC)C3)C(=O)N4)ncnc21
Put these in order: smallest bioavailability first, largest last. Field: ranking. Enter the labels in the order requested. b, c, a
